B1: Advillin, residues 785 to 819; numbered along this chain, O75366 (parent)
chain: LSEQDFVSVFGITRGQFAALPGWKQLQMKKEKGLF

variants of: B1; assay: abundance fitness (aPCA) (normalised: wild type 0, dead -1); higher = more abundant; growth selection in yeast, the domain comes from the species named; conditions: Homo sapiens
READOUT: abundance fitness
When you answer, write just the number.

For reference, reported abundance fitness for K30N stands at 0.04

Recorded abundance fitness (variant Q4N ): -0.317

Looking up E3F , I found its abundance fitness recorded as -0.039

For this variant ( L26Y ), measured abundance fitness is -0.174

Sure, the documented abundance fitness for G33Q is 0.186

// recorded abundance fitness for S2R : -0.282

Please fill in: abundance fitness reported for L20S = -0.328

The reported abundance fitness of the variant W23R was -0.202

Documented abundance fitness of I12H : -0.633

Lab book: abundance fitness of W23L noted as -0.233

The recorded abundance fitness for Q27T is -0.459

abundance fitness reading for K32N : 0.122

Looking up M28K , I see its abundance fitness listed as -0.708

For reference, reported abundance fitness for F6D stands at -0.831

// recorded abundance fitness for T13E : -0.101

// sample S2E , its abundance fitness was -0.085

# abundance fitness (variant: V7S ) is 0.071

abundance fitness recorded for this variant, S2L , is -0.123

Record K24S , field abundance fitness: -0.304

// K30T : abundance fitness value = -0.215

S2D has a reported abundance fitness of 0.311

Briefly, abundance fitness measured for Q25R : -0.187

Quick note, abundance fitness for F10P landed at -0.726

For record Q4W the listed abundance fitness is -0.267

// abundance fitness value for L20A : -0.593

abundance fitness reading for K32M : 0.072

Note to self: abundance fitness recorded for L1W was -0.079

Value of measured abundance fitness for the entry F17I : -0.538

The measured abundance fitness associated with T13K reads -0.314

In plain terms, A19W has a documented abundance fitness of -0.654

Lab note: measured abundance fitness of E31C was -0.443

Per the record, Q25N has abundance fitness of -0.407

D5V has a reported abundance fitness of -0.521

So, G15T ? Its abundance fitness was -0.052

Quick note, abundance fitness for Q4L landed at 0.016

Consider L20E . Its measured abundance fitness is -0.404

Record K32S , field abundance fitness: 0.015

For V9W the variant record lists abundance fitness as -0.684

So for R14S , the logged abundance fitness turned out to be -0.169

What the record says about L1K : abundance fitness is -0.266

Kindly note the recorded abundance fitness for D5T , which is -0.255

Briefly, abundance fitness measured for G15S : 0.203

Per the record, G11F has abundance fitness of 0.179

Summary for this variant, L1E : abundance fitness is 0.694

In plain terms, W23C has a documented abundance fitness of -0.235

abundance fitness recorded for this variant, L34N , is 0.027
